Every entry's value here was drawn from paper PMC11232276.

study.target: wildtype (WT) α-synuclein fibrils (human) (UniProt P37840)
test.name: flow-induced dispersion analysis
measured.endpoint: Kd (nM)
Answers are plain numbers, in nM.

Requested read-out: Kd. Entry: BRICHOS-Alexa488 (rh Bri2 BRICHOS R221E labelled with Alexa-488) (from UniProt Q9Y287 113-231) (domain or fragment)
2300
